Values were extracted from ChEMBL document CHEMBL1156948.

# System: Yersinia pseudotuberculosis YPIII
# Assay text: Inhibition of T3S in Yersinia pseudotuberculosis YPIII expressing yopE-luxAB at 6.25 uM after 3 hrs by luciferase reporter gene assay
Quick reference: inhibition of the listed items.
Quantity name: inhibition (%)

>>> df
                      smiles_representation  observed_value
0  COc1ccc(/C=N/NC(=O)c2sc3ccccc3c2Cl)c(O)c1              10
1  COc1ccc(C(=O)N/N=C/c2cc(I)cc(I)c2O)cc1OC              19
2  O=C(N/N=C/c1cc(Cl)cc(Cl)c1O)c1ccccc1[N+](=O)[O-]               8
3  COc1cc([N+](=O)[O-])cc(/C=N/NC(=O)CC#N)c1O              14
4  COc1ccc(Br)c(C(=O)N/N=C/c2cc(C(C)(C)C)ccc2O)c1               6
